# Assay Method Text: Stability in human plasma assessed as compound degradation incubated for 15 mins by HPLC analysis
# Format: ADME, cell-free
# Details: read-out: Drug degradation
Readout Name: metabolised at 0.25 h

## Input Can you look up the measured metabolised at 0.25 h of O=C1c2cccc3cccc(c23)C(=O)N1CCSc1nnc(Cn2nc(Cc3ccc(F)cc3)c3ccccc3c2=O)o1 for me?
## Output 20%

---

# Tested on: HCT-116
# Assay Method Text: Cytotoxicity against human HCT-116 cells incubated for 72 hrs by MTT assay
# Assay type: functional, cell-based
# Details: HCT-116, 72 h
Readout Name: IC50

Consider the worked cases shown below.
[
  {
    "Chemical String": "O=C1c2cccc3cccc(c23)C(=O)N1CCCc1nnc(CCn2nc(Cc3ccc(F)cc3)c3ccccc3c2=O)o1",
    "Assay System": "HCT-116",
    "IC50": "> 25 µM"
  },
  {
    "Chemical String": "O=C1c2cccc3cccc(c23)C(=O)N1CCSc1nnc(CCCn2nc(Cc3ccccc3)c3ccccc3c2=O)o1",
    "Assay System": "HCT-116",
    "IC50": "> 25 µM"
  },
  {
    "Chemical String": "COc1ccc(Cc2nn(Cc3nnc(SCCN4C(=O)c5cccc6cccc(c56)C4=O)o3)c(=O)c3ccccc23)cc1",
    "Assay System": "HCT-116",
    "IC50": "13.5 µM"
  }
]

Now turn to the next compound.
## Input API: value(readout= IC50, system= HCT-116, query= O=C1c2cccc3cccc(c23)C(=O)N1CCSc1nnc(CCn2nc(Cc3ccccc3)c3ccccc3c2=O)o1 )
## Output > 25 µM

---

# Tested on: PANC-1
# Assay Method Text: Cytotoxicity against human PANC-1 cells incubated for 72 hrs by MTT assay
# Format: functional, cell-based
# Details: PANC-1, 72 h
Please provide measured pIC50 for the entries that follow.
Answers are plain numbers, as −log10 of the molar value.

[
  {
    "Compound": "COc1ccc(Cc2nn(Cc3nnc(SCCN4C(=O)c5cccc6cccc(c56)C4=O)o3)c(=O)c3ccccc23)cc1",
    "Assay System": "PANC-1",
    "Readout Name": "pIC50",
    "Endpoint Result": 4.89
  }
]

## Input API: value(readout= pIC50, system= PANC-1, query= O=C(c1cc(Cc2n[nH]c(=O)c3ccccc23)ccc1F)N1CCN(C(=O)C2CC2)CC1 [OLAPARIB] )
## Output 5.15

---

Please provide measured IC50 for the entries that follow.
# Test system: HCT-116
# Assay Method Text: Cytotoxicity against human HCT-116 cells incubated for 72 hrs by MTT assay
# Type: functional, cell-based
# Details: HCT-116, 72 h

Consider the worked cases shown below.
[
  {
    "Chemical String": "O=C1c2cccc3cccc(c23)C(=O)N1CCCc1nnc(Cn2nc(Cc3ccc(F)cc3)c3ccccc3c2=O)o1",
    "IC50": "> 25 µM"
  },
  {
    "Chemical String": "O=C1c2cccc3cccc(c23)C(=O)N1CCSc1nnc(CCn2nc(Cc3ccc(F)cc3)c3ccccc3c2=O)o1",
    "IC50": "12.5 µM"
  },
  {
    "Chemical String": "O=C1c2cccc3cccc(c23)C(=O)N1CCSc1nnc(CCCn2nc(Cc3ccc(F)cc3)c3ccccc3c2=O)o1",
    "IC50": "> 25 µM"
  },
  {
    "Chemical String": "COc1ccc(Cc2nn(CCc3nnc(SCCN4C(=O)c5cccc6cccc(c56)C4=O)o3)c(=O)c3ccccc23)cc1",
    "IC50": "> 25 µM"
  },
  {
    "Chemical String": "O=C1c2cccc3cccc(c23)C(=O)N1CCSc1nnc(Cn2nc(Cc3ccccc3)c3ccccc3c2=O)o1",
    "IC50": "> 25 µM"
  }
]

Can you give me IC50 for all of these, one by one?
1. O=C1c2cccc3cccc(c23)C(=O)N1CCSc1nnc(Cn2nc(Cc3ccc(F)cc3)c3ccccc3c2=O)o1
2. O=C1NC(=O)c2cccc3cccc1c23
3. O=C(c1cc(Cc2n[nH]c(=O)c3ccccc23)ccc1F)N1CCN(C(=O)C2CC2)CC1
4. COc1ccc(Cc2nn(CCCc3nnc(SCCN4C(=O)c5cccc6cccc(c56)C4=O)o3)c(=O)c3ccccc23)cc1

## Output
["4 µM", "15 µM", "9 µM", "> 25 µM"]
